Test system: K4 kissing-loop RNA reporter
Assay: apparent KD of K4 kissing-loop reporter; higher = weaker reporter binding
Conditions: Eterna round: R107; input ligand: none
Entry flag: rule met if apparent KD of K4 kissing-loop reporter reaches 200 nM; rule not met if it does not.

Assess whether reported apparent KD of K4 kissing-loop reporter for AAGUGAUGUUGUAGUGAUGUUGUGAUGUUGCAGGAUAUAUAGUGAUGUAGAAGGGUAUGUACAGUUUUUUUUUUUGAGUGAUGAU [vvcvmullin] sits at 200 nM or higher.
rule not met

Assess whether reported apparent KD of K4 kissing-loop reporter for AAAUAAAGCAGUCACCCAGUGAUGUUGGAAGGAGCGUGCGAAAGCACAGGUAGGUCGCCAAAAUAAAGUGGCUGCGGCAAAGCCA [#SwitchBubble 25 #K4Early] sits at 200 nM or higher.
rule met

Assess whether reported apparent KD of K4 kissing-loop reporter for AGAGAUAUAUGAGGAUAUGAGAUAGUUAAUGAGUGAGUUAUAGUGUAGUUUGGUUAGUGAUGUUAUUUAGAAGGCGUGAGUGAUG [reefmullin] sits at 200 nM or higher.
rule not met

Assess whether reported apparent KD of K4 kissing-loop reporter for AAGGACUGCCAGGGAACACACUCAUUAUGGGAGGAUAUGUUAGCUGACAGAAGGCCCAGUGAUGUUGGGCCGGCGGGCUGUCAGG [Diargean] sits at 200 nM or higher.
rule met

Assess whether reported apparent KD of K4 kissing-loop reporter for AAUUCUUAUCUUAGUUGAUUUCUAAUUAAACGAGGACCGGUACGGCCGCCACUCGGUUAUGAGUGAUGUUCAUGGAAUUACAUAA [JR_SSTryptoA_Sub019] sits at 200 nM or higher.
rule met

Assess whether reported apparent KD of K4 kissing-loop reporter for AUCAUUAGUUCGGCCGCCACUCCAGUGAUGUUGGAGGGACGCAUAAUAUGCGCGCGGCCAACUAGGAGGACCGGGAACUUUAAGC [Intionge] sits at 200 nM or higher.
rule not met

Assess whether reported apparent KD of K4 kissing-loop reporter for UGGGCCGCCUGAGGAUAUAGAGACGAGUGAUGUUCGUGGAUCAGAGCCAGUGAUGUUGGGUUAUUUCUAGAAGGCGGGCGAACUU [Exclusion FMN B GF10] sits at 200 nM or higher.
rule not met

Assess whether reported apparent KD of K4 kissing-loop reporter for UGUGCCAAAUGUGAUACCAGCAUCCUGCAGUGAUGUUGCAUACGAGUGAUGUUCGUCCGAUGCCCUUGGCAGCGCAGUAGUUUGA [Same State Theophylline B GF 26] sits at 200 nM or higher.
rule met

Assess whether reported apparent KD of K4 kissing-loop reporter for ACAGGAUCGAAGAUCCUGAGCAGUCAAAACCGAGGACCGGUACGGCCGCCACUCGGAGUGAUGUUCCGAAGACUGCAAAAUAAAA [#SwitchBubble 3] sits at 200 nM or higher.
rule met

Assess whether reported apparent KD of K4 kissing-loop reporter for CAUCUGGACCAAGGAUAUGUGGGCAUAAUAAAAUUACCACCUUAUUUGCAGUAAGUGAUGUUUAACACAGAAGGUGGACAUAGAC [theeternabot_exclusion_KL_FMN_B_10] sits at 200 nM or higher.
rule met

Assess whether reported apparent KD of K4 kissing-loop reporter for GGAUAGGACAGAGGAUAUUGGUAGUGAUGUUACCAAAUAAAUAAACAGUCUACAAAGUAGGCUGACCAAGAAGGCUGUCCUAUCG [FmnBX 24 #SwitchBubble #StaticStem #Palindromic] sits at 200 nM or higher.
rule not met

Assess whether reported apparent KD of K4 kissing-loop reporter for AGAGUACGAAAGUACUCCUCUACACACUGUCGAGGACCGGUACGGCCGCCACUCGAGUUGAGUGAUGUUCGAUAGUGUGUAGAGA [Omei KL Tryp A SS C v4] sits at 200 nM or higher.
rule not met

Assess whether reported apparent KD of K4 kissing-loop reporter for UCCUAGGCUCGAAAGAGCCUAGGUUAGACUCAGGAUAUCUGGAAACAGAGAAGGGAGCUACUAGUGAUGUUAGGAAUUCCCAUUU sits at 200 nM or higher.
rule not met

Assess whether reported apparent KD of K4 kissing-loop reporter for AAUUUAGUGACGGCCGCCACUAGGGUGAUUUAUUUGUUUGAGUGAUGUUUUGAUGUUUGAUUUUGUAGGACCGGGUUAGGUGAUG [dddcmullin] sits at 200 nM or higher.
rule met

Assess whether reported apparent KD of K4 kissing-loop reporter for UUAGGAGUGGAAGGAUAUCCUGGUGUGGGUGAUGUUAGUGAUGUUGAAAGUGCAGUGAUGUUGUGCGGAGAAGGUCCGGUGUUGA [BDazzled - #8 - Exc. FMN B] sits at 200 nM or higher.
rule not met

Assess whether reported apparent KD of K4 kissing-loop reporter for GCGCGGCAGGCGGCCGCCACUCUGACGAGCCACAGUGAUGUUGUGGUCGGAGAAACGUCUUCAUAGAGGACCGGGUUUGUUGUUC [Same State Typtophan A GF 25] sits at 200 nM or higher.
rule met

Assess whether reported apparent KD of K4 kissing-loop reporter for CAUAGGAAACUAUGUAUCUCUCUUACUGAAGGAGCGCGUGAAAACGCAGGUAGGUCGCAGAAUUUAAAAGAGAGUGAUGUUCUCU [Ex Arginine A K4 8] sits at 200 nM or higher.
rule met

Assess whether reported apparent KD of K4 kissing-loop reporter for UGAUACCAGGCGGCCGCCACUCCUGCAGGUCAAAGACCUGUGAAGCUGGUUCUCCAGUGAUGUUGGAGGACCGGGCCUGGUAUCU [FiskerMod 27 - Jieux - Exclusion - Tryptophan B] sits at 200 nM or higher.
rule not met

Assess whether reported apparent KD of K4 kissing-loop reporter for CCAGGACGAUGAGGAUGAUGAAUUACUGAAGGAGCGCAUAUGGUUGCAGGUAGGUCGCGGUGAACAAGUAUAGUGAUGUUAUACC [SSArgA.U] sits at 200 nM or higher.
rule met

Assess whether reported apparent KD of K4 kissing-loop reporter for CCCAAGGGCCUACCGGUAUUAUUAACGGAUACCAGAGGCGAAAGCCUCCCUUGGCAGCCGGGUGUAGUGAUGUUACUCCGGUAGU sits at 200 nM or higher.
rule not met

Assess whether reported apparent KD of K4 kissing-loop reporter for AGUUAUGUAUCAGGAUAUUAGUGAUGUUUGUUUUUGUUAGUGAUGUUGAUAUUUGUUUUAUGUAUUUAAGAAGGGAUUGAGAUGU [qsszmullin] sits at 200 nM or higher.
rule not met

Assess whether reported apparent KD of K4 kissing-loop reporter for AGACUACCACACUGUCAAUAGACAGUGAGCUAGGAUAUGCUGAUAAGCAGAAGGAGUGAUGUUCCUGGGUAGUCAAUAAAAUAAU [FmnAX 13 G29+G67] sits at 200 nM or higher.
rule met

----------
System: K4 kissing-loop RNA reporter
Assay: apparent KD of K4 kissing-loop reporter; higher = weaker reporter binding
Settings: Eterna round: R107; input ligand: theophylline 20 uM
experimentalEndpoint: apparent KD of K4 kissing-loop reporter
Give the number first and the unit second.

Query apparent KD of K4 kissing-loop reporter on K4 kissing-loop RNA reporter for AGCUCAGAGUGACUCGAUAAGAGUCACAAACGAGGACCGGUACGGCCGCCACUCGAAAUAAUGAGAGUGAUGUUCUCGCUGAGCA [#SwitchBubble 2 #StaticStem #K4Late]
145 nM

Query apparent KD of K4 kissing-loop reporter on K4 kissing-loop RNA reporter for GGUAGCAUGGCGGCCGCCACUAUUACUGGAUCGGAAACGAUCCAGUAUUUAUGAGUGAUGUUCAUUAGGACCGGGCCAUGCUACC
305 nM

Query apparent KD of K4 kissing-loop reporter on K4 kissing-loop RNA reporter for CCCAAGGGCCUACCGGUAUUAUUAACGGAUACCAGAGGCGAAAGCCUCCCUUGGCAGCCGGGUGUAGUGAUGUUACUCCGGUAGU
63.2 nM

Query apparent KD of K4 kissing-loop reporter on K4 kissing-loop RNA reporter for AGACUACCACACUGUCAAUAGACAGUGAACUAGGAUAUGCUGAUAAGCAGAAGGAGUGAUGUUCCUAAAGGUAGUCAAAUAUAAU [FmnAX 14 #SwitchBubble #StaticStem #K4Early]
567 nM

Query apparent KD of K4 kissing-loop reporter on K4 kissing-loop RNA reporter for AUCAUUAGUUCGGCCGCCACUCCAGUGAUGUUGGAGGGACGCAUAAUAUGCGCGCGGCCAACUAGGAGGACCGGGAACUUUAAGC [Intionge]
126 nM

Query apparent KD of K4 kissing-loop reporter on K4 kissing-loop RNA reporter for GGAUAGGAUAGAGGAUAUGGGUUAGGCAAGAAUAACUUGUCUAGUAAAUCCAUGAGGAGUGAUGUUCCAGAAGGCUGUCCUAUCG [MatMod 4 - Jieux - Exclusion - FMN B]
127 nM

----------
Test system: K4 kissing-loop RNA reporter;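 also: bound reporter read as fluorescence of individual clusters on recovered sequencing chips by microscopy, with normalized cluster intensities fitted with a binding model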
Test: apparent KD of K4 kissing-loop reporter; higher = weaker reporter binding
Settings: Eterna round: R107; input ligand: FMN 200 uM
For each of the sequences below, state its apparent KD of K4 kissing-loop reporter.
Report only the number, with the unit µM understood.

Field request: apparent KD of K4 kissing-loop reporter | item: UGUCAUUGGUCUGAUACCAGUUAGCGCGAUAAGCGCAAAACUGGAGUGAUGUUCCCAAAUAACCCUUGGCAGCAGACCGAUGACU [MAT - Same State Theophlline B - Mod of Eli - D13]
0.337

Field request: apparent KD of K4 kissing-loop reporter | item: UGGAGUUGACGAAAAGUCAACUCCUGAGAUACCAGUGACGAAAGUCACCCUUGGCAGCUCACUGCCAGUGAUGUUGGUUCAUAAG [#03 K4 Theophylline A Same State]
0.223

Field request: apparent KD of K4 kissing-loop reporter | item: AUACGCGAUAGCGUAUAUAACUUUUCAGAAGGAGCGUGGAAGUACACAGGUAGGUCGCUGAAUAUAGGACUAGUGAUGUUAGUUA [JR_Nu_SSArginiA_Sub025]
0.195
